- Target of assay: 72 kDa type IV collagenase (Homo sapiens)
- Sequence (P08253 whole entry): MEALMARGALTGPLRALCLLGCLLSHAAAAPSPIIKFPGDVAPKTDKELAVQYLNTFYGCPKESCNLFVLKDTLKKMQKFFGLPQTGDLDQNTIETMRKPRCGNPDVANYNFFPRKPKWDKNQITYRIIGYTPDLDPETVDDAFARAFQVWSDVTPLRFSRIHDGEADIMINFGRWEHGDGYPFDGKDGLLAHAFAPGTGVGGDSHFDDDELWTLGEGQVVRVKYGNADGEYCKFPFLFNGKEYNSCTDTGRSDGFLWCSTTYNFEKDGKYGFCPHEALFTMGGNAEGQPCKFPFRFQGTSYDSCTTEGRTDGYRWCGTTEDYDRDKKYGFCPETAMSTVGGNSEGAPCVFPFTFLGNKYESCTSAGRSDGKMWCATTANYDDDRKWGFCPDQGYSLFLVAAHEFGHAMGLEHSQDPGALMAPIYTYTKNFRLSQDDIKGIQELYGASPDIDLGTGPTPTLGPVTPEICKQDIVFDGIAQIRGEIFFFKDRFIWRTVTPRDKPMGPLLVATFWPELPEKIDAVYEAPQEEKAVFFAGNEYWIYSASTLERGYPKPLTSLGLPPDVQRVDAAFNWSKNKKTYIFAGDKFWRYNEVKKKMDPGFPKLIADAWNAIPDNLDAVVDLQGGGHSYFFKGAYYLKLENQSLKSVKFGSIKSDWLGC
- Protocol description: Inhibition of MMP2 (unknown origin) using succinylated gelatin as substrate preincubated for 10 mins before substrate addition measured after 30 mins by spectrophotometry
pIC50: −log10 of the molar value.
Readout kind: pIC50

{"columns": ["Smiles representation", "pIC50"],
 "data": [
  ["CSCC[C@H](N)C(=O)NCC(=O)N[C@H]1C[C@@H](C(=O)NO)N(S(=O)(=O)c2ccc(Cl)cc2)C1.Cl", 6.34],
  ["C[C@H](N)C(=O)NCC(=O)N[C@H]1C[C@@H](C(=O)NO)N(S(=O)(=O)c2ccc(Cl)cc2)C1.Cl", 5.47],
  ["Cc1ccc(S(=O)(=O)N2C[C@@H](NC(=O)CNC(=O)[C@H](C)N)C[C@H]2C(=O)NO)cc1.Cl", 5.36],
  ["Cl.N[C@@H](Cc1ccccc1)C(=O)NCC(=O)N[C@H]1C[C@@H](C(=O)NO)N(S(=O)(=O)c2ccccc2)C1", 5.68],
  ["CC(C)[C@H](N)C(=O)NCC(=O)N[C@H]1C[C@@H](C(=O)NO)N(S(=O)(=O)c2ccc(Cl)cc2)C1.Cl", 5.74],
  ["COc1ccc(S(=O)(=O)N2C[C@@H](NC(=O)CNC(=O)[C@H](C)N)C[C@H]2C(=O)NO)cc1.Cl", 5.38],
  ["C[C@H](N)C(=O)NCC(=O)N[C@H]1C[C@@H](C(=O)NO)N(S(=O)(=O)c2ccccc2)C1.Cl", 5.13],
  ["CC[C@H](C)[C@H](N)C(=O)NCC(=O)N[C@H]1C[C@@H](C(=O)NO)N(S(=O)(=O)c2ccccc2)C1.Cl", 5.28]
]}

a. CSCC[C@H](N)C(=O)NCC(=O)N[C@H]1C[C@@H](C(=O)NO)N(S(=O)(=O)c2ccc(C)cc2)C1.Cl
b. COc1ccc(S(=O)(=O)N2C[C@@H](NC(=O)CNC(=O)[C@@H](N)CC(C)C)C[C@H]2C(=O)NO)cc1.Cl
c. Cc1ccc(S(=O)(=O)N2C[C@@H](NC(=O)CNC(=O)[C@@H](N)C(C)C)C[C@H]2C(=O)NO)cc1.Cl
Q. Ranking field: pIC50; order: falling. Rank the items, then write their labels in that order.
A. b, a, c
(b: 6.28, a: 5.99, c: 5.53)

* * *

- Target of assay: UniProt P15145
- Sequence (P15145 whole entry): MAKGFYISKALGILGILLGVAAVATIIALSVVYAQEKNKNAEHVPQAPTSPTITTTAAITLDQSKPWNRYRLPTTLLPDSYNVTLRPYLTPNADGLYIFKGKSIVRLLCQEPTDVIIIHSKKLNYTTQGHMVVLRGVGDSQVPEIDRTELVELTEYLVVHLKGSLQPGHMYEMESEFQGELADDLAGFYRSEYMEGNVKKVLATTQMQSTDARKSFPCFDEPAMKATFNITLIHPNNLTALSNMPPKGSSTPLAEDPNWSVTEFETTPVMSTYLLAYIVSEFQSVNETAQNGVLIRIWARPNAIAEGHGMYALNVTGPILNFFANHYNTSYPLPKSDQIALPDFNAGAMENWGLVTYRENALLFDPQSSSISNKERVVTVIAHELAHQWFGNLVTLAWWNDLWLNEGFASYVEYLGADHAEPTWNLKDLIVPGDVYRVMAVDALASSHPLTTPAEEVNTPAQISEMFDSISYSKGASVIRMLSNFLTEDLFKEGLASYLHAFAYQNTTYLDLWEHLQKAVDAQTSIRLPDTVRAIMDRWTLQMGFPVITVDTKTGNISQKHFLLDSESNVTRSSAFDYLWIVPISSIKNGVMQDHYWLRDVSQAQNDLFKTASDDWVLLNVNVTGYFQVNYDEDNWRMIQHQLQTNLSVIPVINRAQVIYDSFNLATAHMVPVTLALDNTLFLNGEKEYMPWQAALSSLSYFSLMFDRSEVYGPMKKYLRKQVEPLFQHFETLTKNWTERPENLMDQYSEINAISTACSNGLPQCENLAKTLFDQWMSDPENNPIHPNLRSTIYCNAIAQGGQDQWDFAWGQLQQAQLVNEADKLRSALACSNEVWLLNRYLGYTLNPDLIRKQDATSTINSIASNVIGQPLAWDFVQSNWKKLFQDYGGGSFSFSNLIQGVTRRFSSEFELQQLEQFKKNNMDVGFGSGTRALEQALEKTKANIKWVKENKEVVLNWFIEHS
pIC50: −log10 of the molar value.
Readout kind: pIC50

{"columns": ["Smiles representation", "pIC50"],
 "data": [
  ["CC[C@H](C)[C@H](N)C(=O)NCC(=O)N[C@H]1C[C@@H](C(=O)NO)N(S(=O)(=O)c2ccc(C)cc2)C1.Cl", 4.03],
  ["Cc1ccc(S(=O)(=O)N2C[C@@H](NC(=O)CNC(=O)[C@@H](N)CC(C)C)C[C@H]2C(=O)NO)cc1.Cl", 4.12],
  ["COc1ccc(S(=O)(=O)N2C[C@@H](NC(=O)CNC(=O)[C@@H](N)CC(C)C)C[C@H]2C(=O)NO)cc1.Cl", 4.08],
  ["CC[C@H](C)[C@H](N)C(=O)NCC(=O)N[C@H]1C[C@@H](C(=O)NO)N(S(=O)(=O)c2ccc(Cl)cc2)C1.Cl", 4.06],
  ["COc1ccc(S(=O)(=O)N2C[C@@H](NC(=O)CNC(=O)[C@@H](N)C(C)C)C[C@H]2C(=O)NO)cc1.Cl", 4.04]
]}

* * *

- Target of assay: 72 kDa type IV collagenase (Homo sapiens)
- Protocol description: Inhibition of MMP2 in human SKOV3 cell suspension using succinylated gelatin as substrate preincubated for 10 mins before substrate addition measured after 30 mins by spectrophotometry
- Set-up: species or system SK-OV-3
Readout kind: IC50 (µM)

Completed entries (count: 6):
{"columns": ["Smiles representation", "IC50 [µM]"],
 "data": [
  ["COc1ccc(S(=O)(=O)N2C[C@@H](NC(=O)CNC(=O)[C@@H](N)CCSC)C[C@H]2C(=O)NO)cc1.Cl", 35.9],
  ["Cl.N[C@@H](Cc1ccccc1)C(=O)NCC(=O)N[C@H]1C[C@@H](C(=O)NO)N(S(=O)(=O)c2ccc(Cl)cc2)C1", 24.7],
  ["COc1ccc(/C=C/C(=O)N2C[C@@H](NC(=O)c3cccnc3)C[C@H]2C(=O)NO)cc1OC", 43.7],
  ["CC(C)C[C@H](N)C(=O)NCC(=O)N[C@H]1C[C@@H](C(=O)NO)N(S(=O)(=O)c2ccc(Cl)cc2)C1.Cl", 18.4],
  ["COc1ccc(S(=O)(=O)N2C[C@@H](NC(=O)CNC(=O)[C@@H](N)Cc3ccccc3)C[C@H]2C(=O)NO)cc1.Cl", 31.5],
  ["COc1ccc(S(=O)(=O)N2C[C@@H](NC(=O)CNC(=O)[C@@H](N)CC(C)C)C[C@H]2C(=O)NO)cc1.Cl", 29.7]
]}

a. CSCC[C@H](N)C(=O)NCC(=O)N[C@H]1C[C@@H](C(=O)NO)N(S(=O)(=O)c2ccc(Cl)cc2)C1.Cl
b. Cc1ccc(S(=O)(=O)N2C[C@@H](NC(=O)CNC(=O)[C@@H](N)CC(C)C)C[C@H]2C(=O)NO)cc1.Cl
Q. Looking at a and b , which one comes out lower in IC50 terms? Could you answer with the label of the item you picked?
A. a
(a: 26.2 µM, b: 38.3 µM)

* * *

Quick reference: pIC50 of the listed items.
- Target of assay: Aminopeptidase N (Sus scrofa)
- Sequence (P15145 whole entry): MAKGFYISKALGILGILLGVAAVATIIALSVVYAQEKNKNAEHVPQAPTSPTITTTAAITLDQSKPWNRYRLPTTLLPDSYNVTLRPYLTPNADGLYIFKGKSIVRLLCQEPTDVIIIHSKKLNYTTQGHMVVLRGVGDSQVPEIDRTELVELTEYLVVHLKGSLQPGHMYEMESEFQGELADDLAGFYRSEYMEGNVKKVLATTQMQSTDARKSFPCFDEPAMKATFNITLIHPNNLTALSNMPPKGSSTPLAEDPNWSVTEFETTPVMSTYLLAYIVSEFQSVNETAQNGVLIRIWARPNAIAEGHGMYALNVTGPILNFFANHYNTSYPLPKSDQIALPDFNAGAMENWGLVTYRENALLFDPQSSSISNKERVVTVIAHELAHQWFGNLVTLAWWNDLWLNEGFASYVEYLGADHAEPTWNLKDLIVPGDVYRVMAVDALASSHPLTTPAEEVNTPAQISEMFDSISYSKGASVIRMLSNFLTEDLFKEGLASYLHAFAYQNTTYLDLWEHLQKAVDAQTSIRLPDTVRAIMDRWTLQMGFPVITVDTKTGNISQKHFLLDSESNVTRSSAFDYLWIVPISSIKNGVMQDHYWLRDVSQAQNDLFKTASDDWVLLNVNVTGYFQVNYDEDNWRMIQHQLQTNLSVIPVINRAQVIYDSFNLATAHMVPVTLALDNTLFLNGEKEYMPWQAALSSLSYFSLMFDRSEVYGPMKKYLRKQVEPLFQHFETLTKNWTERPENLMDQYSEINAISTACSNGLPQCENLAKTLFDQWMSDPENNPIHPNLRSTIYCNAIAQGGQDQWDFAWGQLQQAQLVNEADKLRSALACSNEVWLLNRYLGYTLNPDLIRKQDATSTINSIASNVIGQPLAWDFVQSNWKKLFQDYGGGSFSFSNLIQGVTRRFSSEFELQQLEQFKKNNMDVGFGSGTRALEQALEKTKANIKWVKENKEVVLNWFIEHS
pIC50: −log10 of the molar value.

{"columns": ["Smiles representation", "Test result"],
 "data": [
  ["Cc1ccc(S(=O)(=O)N2C[C@@H](NC(=O)CNC(=O)[C@H](C)N)C[C@H]2C(=O)NO)cc1.Cl", "< 4.00"]
]}

Q. Return reported pIC50. Input molecule: C[C@H](N)C(=O)NCC(=O)N[C@H]1C[C@@H](C(=O)NO)N(S(=O)(=O)c2ccccc2)C1.Cl
A. < 4.00

Q. Return reported pIC50. Input molecule: CSCC[C@H](N)C(=O)NCC(=O)N[C@H]1C[C@@H](C(=O)NO)N(S(=O)(=O)c2ccc(C)cc2)C1.Cl
A. < 4.00
